Source of measurements: PubChem BioAssay (NCI)

Test system: HCT-15 colon
Assay details: NCI tumour cell line growth inhibition, 48 h
Readout: TGI

Reference set, count: 5
COc1ccc2c(c1)/C(=C\c1c(C)nc3n1CCS3)C(=O)N2 | > 100 µM
O=C(Nc1cc(Cl)c(Cl)cc1Cl)C(=O)C1C=CCS1(=O)=O (stereo not given) | > 100 µM
COc1ccc(-c2onc(-c3ccc([N+](=O)[O-])cc3)c2C2=NCCN2)cc1 | > 100 µM
CC(=O)C(=[N+]=[N-])C(=O)NCC#N | > 10 µM
Cc1csc2nc3c(cnn3C)c(=S)n12 | > 100 µM

[Q] Notebook: pull reported TGI for HCT-15 colon, entry C=C(Cl)c1c(OC)cccc1OCc1ccccc1
[A] > 100 µM

[Q] Notebook: pull reported TGI for HCT-15 colon, entry CC(C)=CCCC(C)c1ccc(C)c2c1OCN(CC1CCNCC1)C2 (stereo not given)
[A] 21.1 µM

[Q] Notebook: pull reported TGI for HCT-15 colon, entry C[C@]12C[C@H](c3ccccc3)Nc3ccccc3N1C(c1ccccc1)=NO2
[A] > 100 µM

[Q] Notebook: pull reported TGI for HCT-15 colon, entry COc1ccc(/C=N\NC(=O)CN2CCN(c3cc4c(cc3F)c(=O)c(C(=O)N/N=C/c3ccc(OC)c(OC)c3)cn4C3CC3)CC2)cc1OC
[A] > 100 µM

###

Each entry below carries its recorded TGI.
Test system: BT-549 breast
Assay details: NCI tumour cell line growth inhibition, 48 h
Dear colleague, please return just the value in µM, with no unit written.

COc1ccc2nc3c([N+](=O)[O-])ccc4c3c(c2c1)N=CN4CCCN(C)C | 23.5
COc1ccc(/C=N\NC(=O)CN2CCN(c3cc4c(cc3F)c(=O)c(C(=O)N/N=C/c3ccc(OC)c(OC)c3)cn4C3CC3)CC2)cc1OC | 3.89
Nc1c(C(=O)c2ccc(Cl)cc2)sc(Nc2ccccc2)c1-c1nc2ccccc2s1 | 19.5
CCN(CC)CC(O)CNc1ccc(NCC2CO2)c2c1C(=O)c1ccccc1C2=O (centres undefined) | 4.27
CC1(C)C2CCC3=C(CCC4(C)C5C[C@](C)(C(=O)O)CC[C@]5(C)CC[C@]34C)[C@@]2(C)CC[C@@H]1O (some centres undefined) | 39.1

[Q] So what's the measured TGI for this one? CCOC(=O)C(SCCO)C(C(=O)OCC)n1cnc2c(N)ncnc21 (centres undefined)
[A] 30.8

[Q] So what's the measured TGI for this one? N#C/C(=C\c1cn(Cc2ccccc2)c2ccccc12)c1nn(-c2ccccc2)c(N)c1C#N
[A] 58.3

[Q] So what's the measured TGI for this one? C/C1=C/C(C)CC(C)OC(=O)C(C)NC(=O)C(Cc2ccc(O)c(I)c2)N(C)C(=O)CNC(=O)C(C)C1 (centres undefined)
[A] 0.322

[Q] So what's the measured TGI for this one? O=C(N/N=C/c1ccc2c(c1)OCO2)Nc1ccccc1Cl
[A] 75.7

###

System: KM12 colon
Assay details: NCI tumour cell line growth inhibition, 48 h
Each entry below carries its recorded GI50.

Reference set, count: 2
COc1cc(C(=O)/C(C)=C/c2c[nH]c3ccccc23)cc(OC)c1OC | 0.00359 µM
O=C1c2ccccc2-c2c1c1ccccc1c(=O)n2CCCNCCCn1ccnc1 | 0.593 µM

[Q] Notebook: pull reported GI50 for KM12 colon, entry O=c1ccn(C2OC(CO)C(O)C2F)c(=O)[nH]1 (configuration not stated)
[A] > 1000 µM

[Q] Notebook: pull reported GI50 for KM12 colon, entry CCOC(=O)c1cc(C#N)c(=O)n(/N=C(\C)c2ccncc2)c1O
[A] > 100 µM

[Q] Notebook: pull reported GI50 for KM12 colon, entry CC(C)=CCCC(C)c1ccc(C)c2c1OCN(CC1CCNCC1)C2 (configuration not stated)
[A] 12.3 µM

[Q] Notebook: pull reported GI50 for KM12 colon, entry CCOC(=O)C(Cc1c[nH]c2ccc(N)cc12)(NC(C)=O)C(=O)OCC
[A] > 1000 µM

[Q] Notebook: pull reported GI50 for KM12 colon, entry CCN1CCN(C(=O)[C@]23CC[C@@H](C)[C@H](C)[C@@H]2C2=CC[C@@H]4[C@@]5(C)C/C(=C/c6ccncc6)C(=O)C(C)(C)[C@@H]5CC[C@@]4(C)[C@]2(C)CC3)CC1
[A] 1.87 µM

[Q] Notebook: pull reported GI50 for KM12 colon, entry C=C1C(=O)O[C@H]2[C@H]1CC/C(CNC(=O)c1cc3cc(OC)ccc3[nH]1)=C\CC[C@@]1(C)O[C@@H]21
[A] 4.98 µM

###

System: HL-60(TB) leukemia
Assay details: NCI tumour cell line growth inhibition, 48 h; in the data active = GI50 below about 0.43 µM; inactive = the rest
Your reply should match one of these outcome classes. active, inactive

COc1ccc(CN(C)c2ccc(CO)c(Cl)c2)cc1 | inactive
Nc1c(C(=O)c2ccc(Cl)cc2)sc(Nc2ccccc2)c1-c1nc2ccccc2s1 | inactive
CCN(CC)CCCC(C)Nc1c2ccc(Cl)cc2nc2ccc(OC)cc12 (stereo unspecified) | inactive
NOCC(=O)O | inactive
Cn1c([N+](=O)[O-])cnc1/C=C1\Oc2ccccc2C1=O | active

[Q] Any idea what this test logged for O=C(O[C@H]1CN[C@H](C#Cc2cc3ncnc(Nc4ccc5c(ccn5Cc5cc(F)ccc5F)c4)c3s2)C1)N1CCOCC1 ?
[A] inactive

###

Each entry below carries its recorded TGI.
System: HT29 colon
Assay details: NCI tumour cell line growth inhibition, 48 h

[Q] So what's the measured TGI for this one? Cn1ccnc1CC(C)(O)c1ccccc1 (configuration not stated)
[A] > 100 µM

[Q] So what's the measured TGI for this one? O=C(Nc1cccc2ccccc12)Nn1cnnc1
[A] > 100 µM

[Q] So what's the measured TGI for this one? O=[N+]([O-])c1cccc(C2N3CCCCC3[C@@H]3c4[nH]c5ccccc5c4CCN23)c1 (some centres not stated)
[A] 19.8 µM

[Q] So what's the measured TGI for this one? CC(C)(C)[Si](C)(C)O[C@@H](C(=O)OC1C=CCCC1)[C@@H](NC(=O)c1ccccc1)c1ccccc1 (some centres not stated)
[A] 49.5 µM

[Q] So what's the measured TGI for this one? CN(C)C=Nc1cccc2nsnc12
[A] > 100 µM

[Q] So what's the measured TGI for this one? COC(=O)Nc1nc2ccc(S(=O)(=O)NC(CC(C)C)C(=O)OC)cc2[nH]1 (configuration not stated)
[A] 8.06 µM

[Q] So what's the measured TGI for this one? CN(C)c1ccc(/C=N\NC(=O)c2ccccc2Nc2ccccc2C(=O)N/N=C/c2ccc(N(C)C)cc2)cc1
[A] > 100 µM

[Q] So what's the measured TGI for this one? CC(C)CS(=O)(=O)/C(=C(\c1ccc(Br)cc1)S(=O)(=O)CC(C)C)c1ccc(Br)cc1
[A] > 100 µM

[Q] So what's the measured TGI for this one? O=C1CC(NC(=O)C(F)(F)F)c2c1csc2Br (configuration not stated)
[A] > 100 µM

[Q] So what's the measured TGI for this one? COC(=O)c1cc2c(cc1Cl)SC(N(N(C)C)S(=O)(=O)c1ccc(Br)s1)=NS2(=O)=O
[A] 56.9 µM

###

Each entry below carries its recorded TGI.
System: HCT-15 colon
Assay details: NCI tumour cell line growth inhibition, 48 h
Dear colleague, please return just the value in µM, with no unit written.

Reference set, count: 2
C/C1=C/C(C)CC(C)OC(=O)C(C)NC(=O)C(Cc2ccc(O)c(I)c2)N(C)C(=O)CNC(=O)C(C)C1 (stereo not given) | 11.2
COc1ccc(N2C(=O)CC(Cl)C2=O)cc1 (stereo not given) | 33.2

[Q] So what's the measured TGI for this one? CC1=C(C(=O)Nc2ccccc2C)C(c2ccc(Cl)c(Cl)c2)C(C(=O)Nc2ccccc2C)=C(C)N1
[A] 47.2

[Q] So what's the measured TGI for this one? CC(O)c1cccc(NCc2c3ccccc3c(=O)n3c2oc2ccccc23)c1 (stereo not given)
[A] 28.8

###

System: MDA-N
Assay details: NCI tumour cell line growth inhibition, 48 h
Readout: TGI

Reference set, count: 4
COc1cccc(OC/C(N=Cc2cccnc2)=N/NC(=O)c2ccncc2)c1 | > 100 µM
COc1ccc2nc3c([N+](=O)[O-])ccc4c3c(c2c1)N=CN4CCCN(C)C | 21.8 µM
COC(=O)c1cc2c(o1)Sc1ccccc1NC2=O | > 100 µM
CCOC(=O)C1=CN/C(=C(/C)C(=O)OC)SC1C(=O)OCC (stereo unspecified) | > 100 µM

[Q] Notebook: pull reported TGI for MDA-N, entry COc1ccc([N+](=O)[O-])c2c(NCCCN(C)C)c3ccccc3nc12
[A] 1.55 µM

[Q] Notebook: pull reported TGI for MDA-N, entry CC1(C)CN=C(c2ccc3c(c2)Cc2cc(C4=NCC(C)(C)N4)ccc2-3)N1
[A] > 100 µM
